target_desc: CDK2/Cyclin E1 full length (Homo sapiens (Human), UniProt P24941)
assay_protocol: CDK2/Cyclin E1 full length mobility shift assay
endpoint_label: Ki (nM)

1) CC(C)NC(=O)O[C@H]1CC[C@@H](c2cc(NC(=O)Cc3cnn(C)c3)n[nH]2)C1 :: 0.39
2) CCCNC(=O)O[C@@H]1CC[C@H](c2cc(NC(=O)Cc3ccccc3S(=O)(=O)CC)n[nH]2)C1 :: 0.76
3) COc1cc(CC(=O)Nc2cc([C@@H]3CC[C@H](OC(=O)N4C[C@H](O)[C@H]4C)C3)[nH]n2)ccn1 :: 1.67
4) COc1cnc(CC(=O)Nc2cc([C@H]3CC[C@@H](OC(=O)NC(C)C)C3)[nH]n2)s1 :: 2.12
5) CCCCNC(=O)O[C@@H]1CC[C@H](c2cc(NC(=O)Cc3ccno3)n[nH]2)C1 :: 0.68
6) Cc1ncc(CC(=O)Nc2cc([C@H]3CC[C@@H](OC(=O)NC(C)C(C)(F)F)C3)[nH]n2)s1 (single isomer, unassigned) [Example 391] :: 1.38
7) COc1cc(C(=O)Nc2cc([C@H]3CC[C@@H](OC(=O)NC(C)(C)C)C3)[nH]n2)n(C)n1 :: 0.5
8) Cc1cc(CC(=O)Nc2cc([C@H]3CC[C@@H](OC(=O)N4CCC4C)C3)[nH]n2)on1 (single isomer, unassigned) [Example 589] :: 0.59
9) CC[C@H](C)NC(=O)O[C@@H]1CC[C@H](c2cc(NC(=O)Cc3ccc(OC)nc3)n[nH]2)C1 :: 0.26
10) CC(CC(F)(F)F)N(C)C(=O)O[C@@H]1CC[C@H](c2cc(NC(=O)c3cnnn3C)n[nH]2)C1 (single isomer, unassigned) [Example 412] :: 0.19
11) CCCNC(=O)O[C@H]1CC[C@@H](c2cc(NC(=O)Cc3cnco3)n[nH]2)C1 :: 0.4
12) Cc1ccc(C(=O)Nc2cc([C@H]3CC[C@@H](OC(=O)NC(C)CC(F)(F)F)C3)[nH]n2)cn1 (single isomer, unassigned) [Example 70] :: 0.35

###

pKi values, listed per item
target_desc: CDK2/Cyclin E1 full length (Homo sapiens (Human), UniProt P24941)
assay_protocol: CDK2/Cyclin E1 full length mobility shift assay
pKi: −log10 of the molar value.
endpoint_label: pKi

1) CC[C@H](C)NC(=O)O[C@@H]1CC[C@H](c2cc(NC(=O)Cc3nnc(C)s3)n[nH]2)C1 [Example 344] :: 9.24
2) CC[C@H](C)NC(=O)O[C@@H]1CC[C@H](c2cc(NC(=O)Cc3cnn(CC)n3)n[nH]2)C1 [Example 339] :: 9.18
3) CCC(CO)CNC(=O)O[C@@H]1CC[C@H](c2cc(NC(=O)Cc3ccnc(OC)c3)n[nH]2)C1 (single isomer, unassigned) [Example 535] :: 8.92
4) Cc1cnc(CC(=O)Nc2cc([C@H]3CC[C@@H](OC(=O)NC(C)CC(F)(F)F)C3)[nH]n2)o1 (single isomer, unassigned) [Example 81] :: 8.83
5) COc1ccc(CC(=O)Nc2cc([C@@H]3CC[C@H](OC(=O)N[C@H]4CC[C@H](O)CC4)C3)[nH]n2)nc1 [Example 557] :: 9.00
